# measurementDescription: Verification pharmacokinetic experiment in rats, SPC 60 g crude drug/kg by gavage, UFLC-MS/MS, DAS 2.0
# Format: in vivo, rat
# runConditions: compartment model parameters, DAS 2.0; rats p.o. SPC 60 g crude drug/kg; Mean, 5 rats
assayMetric: K10 (h⁻¹)

Solved cases (2 shown):
* COc1cc([C@H]2c3cc(O)c(OC)cc3C[C@@H](CO)[C@@H]2CO)ccc1O | 7.512
* O=c1c(-c2ccc(O)cc2)coc2cc(O[C@@H]3O[C@H](CO)[C@@H](O)[C@H](O)[C@H]3O)ccc12 | 0.981

[I] COc1ccc(-c2coc3c(OC)c(O)ccc3c2=O)cc1
[II] COc1cc(-c2coc3cc(O)ccc3c2=O)ccc1O
Problem: // compare measured K10, left I , right II , return larger Lab note: record the label of whichever item you select.
Result: I

* * *

# measurementDescription: Verification pharmacokinetic experiment in rats, SPC 60 g crude drug/kg by gavage, UFLC-MS/MS, DAS 2.0
# Assay type: in vivo, rat
# runConditions: rat, plasma, oral; time 4 h; rats p.o. SPC 60 g crude drug/kg; doses of 1-4: 0.124, 0.22, 1.4, 2.62 mg/kg; 5 rats
assayMetric: concentration at 4 h (ng/mL)

* O=c1c(-c2ccc(O)cc2)coc2cc(O[C@@H]3O[C@H](CO)[C@@H](O)[C@H](O)[C@H]3O)ccc12 | 1.56

[a] COc1ccc(-c2coc3c(OC)c(O)ccc3c2=O)cc1
[b] COc1cc(-c2coc3cc(O)ccc3c2=O)ccc1O
[c] COc1cc([C@H]2c3cc(O)c(OC)cc3C[C@@H](CO)[C@@H]2CO)ccc1O
Problem: Ascending sort, concentration at 4 h. List the labels in the requested order.
Result: a, b, c

* * *

# measurementDescription: Verification pharmacokinetic experiment in rats, SPC 60 g crude drug/kg by gavage, UFLC-MS/MS, DAS 2.0
# Type: in vivo, rat
# runConditions: compartment model parameters, DAS 2.0; rats p.o. SPC 60 g crude drug/kg; Mean, 5 rats
assayMetric: Ka (h⁻¹)

• COc1cc(-c2coc3cc(O)ccc3c2=O)ccc1O = 4.239
• O=c1c(-c2ccc(O)cc2)coc2cc(O[C@@H]3O[C@H](CO)[C@@H](O)[C@H](O)[C@H]3O)ccc12 = 16.131

[a] COc1cc([C@H]2c3cc(O)c(OC)cc3C[C@@H](CO)[C@@H]2CO)ccc1O
[b] COc1ccc(-c2coc3c(OC)c(O)ccc3c2=O)cc1
Problem: Of a and b , whose reported Ka is numerically smaller? Lab note: record the label of whichever item you select.
Result: b
(b: 2.056 h⁻¹, a: 5.032 h⁻¹)

* * *

# measurementDescription: Verification pharmacokinetic experiment in rats, SPC 60 g crude drug/kg by gavage, UFLC-MS/MS, DAS 2.0
# Type: in vivo, rat
# runConditions: rat, plasma, po, 0.124 mg/kg, compartment model parameters, DAS 2.0; rats p.o. SPC 60 g crude drug/kg; Mean, 5 rats; read-out: CL/F (converted)
# Protocol: To validate the accuracy of PBPK models in predicting the pharmacokinetics of SPC constituents at different oral doses, the pharmacokinetic behavior of these four constituents from SPC in rats were analyzed by UFLC-MS/MS. The parameters were calculated using Drug and Statistics Software version 2.0, and then these validated values (Val.) were used to check the accuracy of the Calc. values and evaluated by FE. […]
assayMetric: CL/F (mL/min/kg)
Provide the reading as a plain figure in mL/min/kg.

CL/F reading for COc1cc(-c2coc3cc(O)ccc3c2=O)ccc1O [Constituent 1, 3′-methoxydadizein] : 101

* * *

# measurementDescription: Verification pharmacokinetic experiment in rats, SPC 60 g crude drug/kg by gavage, UFLC-MS/MS, DAS 2.0
# Type: in vivo, rat
# runConditions: rat, plasma, po, 1.4 mg/kg, compartment model parameters, DAS 2.0; rats p.o. SPC 60 g crude drug/kg; Mean, 5 rats; read-out: CL/F (converted)
assayMetric: CL/F (mL/min/kg)
Provide the reading as a plain figure in mL/min/kg.

CL/F reading for O=c1c(-c2ccc(O)cc2)coc2cc(O[C@@H]3O[C@H](CO)[C@@H](O)[C@H](O)[C@H]3O)ccc12 [Constituent 3, daidzin] : 594

* * *

# measurementDescription: Verification pharmacokinetic experiment in rats, SPC 60 g crude drug/kg by gavage, UFLC-MS/MS, DAS 2.0
# Format: in vivo, rat
# runConditions: rat, plasma, po, 0.22 mg/kg, compartment model parameters, DAS 2.0; rats p.o. SPC 60 g crude drug/kg; Mean, 5 rats; read-out: AUC(0-t)
assayMetric: AUC(0-t) (ng·h/mL)
Provide the reading as a plain figure in ng·h/mL.

AUC(0-t) reading for COc1ccc(-c2coc3c(OC)c(O)ccc3c2=O)cc1 : 19.8

* * *

# measurementDescription: Verification pharmacokinetic experiment in rats, SPC 60 g crude drug/kg by gavage, UFLC-MS/MS, DAS 2.0
# Assay type: in vivo, rat
# runConditions: compartment model parameters, DAS 2.0; rats p.o. SPC 60 g crude drug/kg; Mean, 5 rats
assayMetric: K21 (h⁻¹)

* COc1cc(-c2coc3cc(O)ccc3c2=O)ccc1O [Constituent 1, 3′-methoxydadizein] | 0.135
* O=c1c(-c2ccc(O)cc2)coc2cc(O[C@@H]3O[C@H](CO)[C@@H](O)[C@H](O)[C@H]3O)ccc12 [Constituent 3, daidzin] | 0.15

[I] COc1ccc(-c2coc3c(OC)c(O)ccc3c2=O)cc1 [Constituent 2, 8-O-methylretusin]
[II] COc1cc([C@H]2c3cc(O)c(OC)cc3C[C@@H](CO)[C@@H]2CO)ccc1O [Constituent 4, isolariciresinol]
Problem: Of I and II , whose reported K21 is numerically smaller? Lab note: record the label of whichever item you select.
Result: II
(II: 0.247 h⁻¹, I: 0.474 h⁻¹)

* * *

# measurementDescription: Verification pharmacokinetic experiment in rats, SPC 60 g crude drug/kg by gavage, UFLC-MS/MS, DAS 2.0
# Format: in vivo, rat
# runConditions: rat, plasma, po, 2.62 mg/kg, compartment model parameters, DAS 2.0; rats p.o. SPC 60 g crude drug/kg; Mean, 5 rats; read-out: AUC(0-∞)
assayMetric: AUC(0-inf) (ng·h/mL)
Provide the reading as a plain figure in ng·h/mL.

AUC(0-inf) reading for COc1cc([C@H]2c3cc(O)c(OC)cc3C[C@@H](CO)[C@@H]2CO)ccc1O [Constituent 4, isolariciresinol] : 52.8

* * *

# measurementDescription: Verification pharmacokinetic experiment in rats, SPC 60 g crude drug/kg by gavage, UFLC-MS/MS, DAS 2.0
# Type: in vivo, rat
# runConditions: statistical moment parameters, DAS 2.0; rats p.o. SPC 60 g crude drug/kg; Mean, 5 rats
assayMetric: Cz (µg/L)

Solved cases (2 shown):
- O=c1c(-c2ccc(O)cc2)coc2cc(O[C@@H]3O[C@H](CO)[C@@H](O)[C@H](O)[C@H]3O)ccc12: 0.117
- COc1cc(-c2coc3cc(O)ccc3c2=O)ccc1O: 0.202

[1] COc1ccc(-c2coc3c(OC)c(O)ccc3c2=O)cc1
[2] COc1cc([C@H]2c3cc(O)c(OC)cc3C[C@@H](CO)[C@@H]2CO)ccc1O
Problem: Of 1 and 2 , whose reported Cz is numerically smaller? Lab note: record the label of whichever item you select.
Result: 1

* * *

# measurementDescription: Verification pharmacokinetic experiment in rats, SPC 60 g crude drug/kg by gavage, UFLC-MS/MS, DAS 2.0
# Type: in vivo, rat
# runConditions: rat, plasma, oral; time 1 h; rats p.o. SPC 60 g crude drug/kg; doses of 1-4: 0.124, 0.22, 1.4, 2.62 mg/kg; 5 rats
assayMetric: concentration at 1 h (ng/mL)

Solved cases (2 shown):
* COc1cc([C@H]2c3cc(O)c(OC)cc3C[C@@H](CO)[C@@H]2CO)ccc1O | 22.2
* O=c1c(-c2ccc(O)cc2)coc2cc(O[C@@H]3O[C@H](CO)[C@@H](O)[C@H](O)[C@H]3O)ccc12 | 10.9

[1] COc1cc(-c2coc3cc(O)ccc3c2=O)ccc1O
[2] COc1ccc(-c2coc3c(OC)c(O)ccc3c2=O)cc1
Problem: // compare measured concentration at 1 h, left 1 , right 2 , return larger Lab note: record the label of whichever item you select.
Result: 1
(1: 5.77 ng/mL, 2: 3.33 ng/mL)
